Provenance of the data: ChEMBL document CHEMBL1201862

test system: SF-295; assay: NCI tumour cell line growth inhibition, 48 h
Activity calls are given as the source filed them. Cut-off read from the data, not from the text of the source: active = GI50 up to about 1.1 µM and inactive = higher.
Response enum: class 1 (active), class 0 (inactive)

[in] What did the test return for `N=c1c2sc3nc4ccccc4n3c2ncn1Cc1ccccc1` ?
[out] class 0

[in] How about this compound: COc1ccc(-c2cs/c(=N\c3ccccc3)n2CC(O)c2ccc([N+](=O)[O-])cc2)cc1 (stereo unspecified)
[out] class 0

[in] How about this compound: `O=C(/C=C/c1cccs1)c1ccc([N+](=O)[O-])cc1`
[out] class 0

[in] How about this compound: `O=C1CCC(=O)N1n1c(Cc2ccccc2)n[nH]c1=O`
[out] class 0

[in] How about this compound: O=C1CCC2(c3ccc(F)cc3)Nc3ncncc3N12 (stereo unspecified)
[out] class 0

[in] How about this compound: `Cc1ccc(-c2c(C#N)c(-c3ccc([N+](=O)[O-])cc3)c(C#N)c(=O)n2NS(=O)(=O)c2ccccc2)cc1`
[out] class 0

[in] How about this compound: `COc1cccc(-c2cc(O)c3c(C)cc(C)nc3n2)c1`
[out] class 1

[in] How about this compound: `Nc1nc2cc(CNc3ccc(C(=O)O)cc3)ccc2nc1-c1ccccc1`
[out] class 0

[in] How about this compound: CC1OC(CC(=O)O)CC2=C1C(=O)c1c(O)cccc1C2=O (stereo unspecified)
[out] class 1

[in] How about this compound: `CC1(C)CCc2cc3c(cc2O1)OC(C)(C)CC3=O`
[out] class 0

[in] How about this compound: O=C1NC2(O)c3ccccc3C(=O)C2(O)N1c1ccccc1 (stereo unspecified)
[out] class 0

----------
tested on: T47D; assay: NCI tumour cell line growth inhibition, 48 h
Activity calls are given as the source filed them. Rule as the data show it: active = GI50 up to about 1.1 µM and inactive = higher.
Experimental Endpoint: GI50

[in] Which GI50 is listed for COC(=O)/C=C\[C@@H]1[C@H](C)N1S(=O)(=O)c1ccc(C)cc1 (some centres undefined) ?
[out] > 100 µM (inactive)

[in] How about this compound: N=C1OC(CN2CCN(c3ccccc3)CC2)CN1C(=S)Nc1ccccc1 (centres undefined)
[out] 35.6 µM (inactive)

[in] How about this compound: `Cc1sc2nc(N(C)C)oc(=O)c2c1C`
[out] 58.7 µM (inactive)

[in] How about this compound: `O=c1cc(N2CCCC2)[nH]c(=O)n1-c1cccc(C(F)(F)F)c1`
[out] > 100 µM (inactive)

----------
tested on: SK-MEL-5; assay: NCI tumour cell line growth inhibition, 48 h
The source made the active and inactive calls. Cut-off read from the data, not from the text of the source: active = GI50 up to about 1.1 µM and inactive = higher.
Response enum: active, inactive

[in] What did the test return for `N=c1c2sc3nc4ccccc4n3c2ncn1Cc1ccccc1` ?
[out] inactive

[in] How about this molecule: `Cn1c(-c2cccs2)cc(-c2ccsc2)c1-c1ccsc1`
[out] inactive

[in] How about this molecule: CC1(C)Oc2ccc3c(=O)c(-c4ccccc4)c(-c4ccccc4)oc3c2C1C(=O)O (centres undefined)
[out] inactive

[in] How about this molecule: COc1cccc2c1C(=O)c1c(O)c3c(c(O)c1C2=O)C[C@@](O)(/C(C)=N/NC(=O)c1ccccc1)C[C@@H]3OC1CC(N)C(O)C(C)O1 (some centres undefined)
[out] active

[in] How about this molecule: O=NN(CCCl)C(=O)NC1CCSc2ccccc21 (centres undefined)
[out] inactive

[in] How about this molecule: COC(=O)c1c(C)ccc2c(O)c3c(cc12)C(=O)c1c2c(cc(O)c1C3=O)C1(C)OC(C)(O2)C(O)C(N(C)C)C1O (centres undefined)
[out] inactive

[in] How about this molecule: CC(C)=CCC/C(C)=C/CC/C(C)=C/C1CCC(=O)C1(C)C (centres undefined)
[out] inactive

[in] How about this molecule: `N#CCCN(c1ccc(-c2nnc(NC(=O)CNNC(=O)CC(=O)Nc3ccccc3)s2)cc1)S(=O)(=O)c1ccccc1`
[out] inactive

[in] How about this molecule: `CN(C)CCCNc1ccc2nnn3c4ccc(O)cc4c(=O)c1c23`
[out] inactive

----------
tested on: SF-539; experiment: NCI tumour cell line growth inhibition, 48 h
The source made the active and inactive calls. Cut-off read from the data, not from the text of the source: active = GI50 up to about 1.1 µM and inactive = higher.
Response enum: active, inactive

[in] What did the test return for `CC(=O)n1nc(-c2ccccc2)n(/N=C/c2ccc([N+](=O)[O-])o2)c1=O` ?
[out] inactive

[in] How about this compound: COc1ccc(C23C(=O)c4ccccc4N2O[C@H]2C(=O)N(c4ccccc4)C(=O)[C@H]23)cc1 (stereo partly specified)
[out] inactive

[in] How about this compound: CCN(CC)c1ccc2c(c1)Oc1ccc(N(C(C)=O)c3ccccc3)cc1C21OC(=O)c2ccccc21 (stereo unspecified)
[out] inactive

[in] How about this compound: O=C(O)C(O)C(O)C(O)C(O)CO.[Ba+2] (stereo unspecified)
[out] inactive

[in] How about this compound: `COc1ccc(/C=N/NC(=O)NCCCN(C)C)cc1`
[out] inactive

[in] How about this compound: CC(=O)OCC1OC(n2cc(F)c(=O)[nH]c2=O)C(NC(=O)OCc2ccccc2)C(OC(C)=O)C1OC(C)=O (stereo unspecified)
[out] inactive

[in] How about this compound: CCCCCCC(C)CC(CCCCCC)NCCOC(=O)c1ccc([N+](=O)[O-])cc1 (stereo unspecified)
[out] inactive

[in] How about this compound: CCCCN1/C(=N/Nc2n[nH]c(=O)c3ccccc23)SCC1c1ccc(Cl)cc1 (stereo unspecified)
[out] inactive

[in] How about this compound: `CN(C)c1ccc(/N=C2/NC(=N\c3ccccc3)/C(=N/c3ccccc3)S2)cc1`
[out] inactive

[in] How about this compound: `Cc1c2ccccc2cc2cccc[n+]12`
[out] inactive

[in] How about this compound: `COc1cccc(-c2cc(O)c3c(C)cc(C)nc3n2)c1`
[out] active

[in] How about this compound: C=CCCC1CCCNC1=S (stereo unspecified)
[out] inactive

[in] How about this compound: `CCN(CC)C1=Nc2ccccc2-n2ccnc2C1`
[out] inactive

[in] How about this compound: CC[S+]([O-])C(=O)N(O)c1ccc(Cl)cc1 (stereo unspecified)
[out] inactive

[in] How about this compound: CCCCC(C)C1CCC2(C)C=CC(=O)C(C)=C2C1O (stereo unspecified)
[out] inactive

[in] How about this compound: `Cn1c(-c2cccs2)cc(-c2ccsc2)c1-c1ccsc1`
[out] inactive

[in] How about this compound: CC1C[C@]2(C[C@@H](C)C(=O)O2)O[C@@H]2CC3(C)[C@@H]4CCC5C(C)(C)OC(=O)C[C@H]6OO[C@]4(CC[C@]3(C)C12)CC56O (stereo partly specified)
[out] inactive

[in] How about this compound: `COc1ccc(Oc2cccc(/C=C3/C(=O)Nc4ccccc43)c2)cc1`
[out] inactive

[in] How about this compound: `COc1ccc2[nH]c3ccc4cc[n+](CCN5CCC(C6CCN(CC[n+]7ccc8ccc9[nH]c%10ccc(OC)cc%10c9c8c7)CC6)CC5)cc4c3c2c1`
[out] inactive

[in] How about this compound: `CC(=O)OCCn1c(Cc2ccc([N+](=O)[O-])cc2)nn(C(C)=O)c1=O`
[out] inactive

[in] How about this compound: `CSc1ccc(/C=C2\N=C(c3ccccc3)N(/N=C/c3cc4cc(C)ccc4nc3Cl)C2=O)cc1`
[out] inactive

----------
system: DU-145; assay: NCI tumour cell line growth inhibition, 48 h
The source made the active and inactive calls. Cut-off read from the data, not from the text of the source: active = GI50 up to about 1.1 µM and inactive = higher.
Response enum: active, inactive

[in] What did the test return for `CCOC(=O)/C(=N/Nc1ccc(Cl)cc1)N1C(=S)N(C)N=C(C)C=C1S` ?
[out] inactive

[in] How about this compound: `C[C@@H]1O[C@@H](O[C@H]2CC[C@]3(C=O)[C@H]4CC[C@]5(C)[C@@H](c6ccc(=O)oc6)CC[C@]5(O)[C@@H]4CC[C@]3(O)C2)[C@H](O)[C@H](O)[C@H]1O[C@@H]1O[C@H](CO)[C@@H](O)[C@H](O)[C@H]1O`
[out] active

[in] How about this compound: `Cc1sc(Nc2ccc(Nc3nc(-c4ccccc4)c(C)s3)cc2)nc1-c1ccccc1`
[out] inactive

[in] How about this compound: `Cc1nc(N)c(N2CCN(S(N)(=O)=O)CC2)c(O)n1`
[out] inactive

[in] How about this compound: `CCCCc1c(O)nc(Nc2nc3ccccc3[nH]2)[nH]c1=O`
[out] inactive

[in] How about this compound: `C/C(=N\NC(=S)N1CCN(c2ccccn2)CC1)c1cccc(C)n1`
[out] inactive

[in] How about this compound: `CC1(C)S[C@@H]2[C@H](NC(=O)[C@H](N)c3ccccc3)C(=O)N2[C@H]1C(=O)O`
[out] inactive

[in] How about this compound: `Nc1nc(Nc2ccc(Cl)cc2)sc1C(=O)c1c[nH]c2ccccc12`
[out] inactive

[in] How about this compound: `COC(=O)CC1(CNC(=O)OCc2ccccc2)OCCO1`
[out] inactive

[in] How about this compound: O=[N+]([O-])c1ccc(N2N=C(c3c(O)ccc4ccccc34)CC2c2ccc(Cl)cc2)c([N+](=O)[O-])c1 (configuration not stated)
[out] inactive

[in] How about this compound: CC1CN=C(N(C(=O)Nc2ccccc2)c2ccc(Cl)c(Cl)c2)S1 (configuration not stated)
[out] inactive

[in] How about this compound: `COC(=O)/C(C#N)=C(/NCc1ccccc1)Nc1ccccc1`
[out] inactive

[in] How about this compound: `CC(C)Oc1c(C2(c3ccccc3O)SCCCS2)c(=O)c1=O`
[out] inactive

[in] How about this compound: `CC(=O)n1nc(-c2ccccc2)n(/N=C/c2ccc([N+](=O)[O-])o2)c1=O`
[out] inactive

[in] How about this compound: COC(=O)C1OC(O[C@H]2CC[C@]3(C)[C@H]4CC=C5[C@@H]6CC(C)(C)CC[C@]6(C(=O)OC6OCC(O)C(O)C6OC6OC(C)C(OC7OCC(O)C(O)C7O)C(OC7OCC(O)(CO)C7O)C6O)[C@H](O)C[C@@]5(C)[C@]4(C)CC[C@H]3C2(C)C)C(O)C(O)C1O (some centres not stated)
[out] inactive

[in] How about this compound: `O=C(CN1CCOCC1)c1ccc2[nH]c(=O)oc2c1`
[out] inactive

[in] How about this compound: `COC(=O)c1ccccc1/C=C1\Cc2ccc3c(c2C1=O)CCC3`
[out] inactive
